Test: Moisturizing effect: transepidermal water loss (Tewameter TM210)
Type: in vivo, human subjects
Set-up: key: −: No effect; +: Weak effect; ++: Moderate effect; +++: Strong effect; ++++: Very strong effect
Settings: individual compound of natural origin
quantity_name: Moisturizing effect

Observe how each entry below is paired with its result.
compound | Moisturizing effect
Cc1cc(O)c2c(c1)C(=O)c1cc(O)cc(O)c1C2=O [Emodin] | ++
CC1=C(O)C(=O)C(C)O1 (stereo not drawn) [Furaneol] | +
CCCCCCCC/C=C/CCCCCCCC(=O)O [Elaidic acid] | −
COC1=C(OC)C(=O)C(C/C=C(\C)CC/C=C(\C)CC/C=C(\C)CC/C=C(\C)CC/C=C(\C)CC/C=C(\C)CC/C=C(\C)CC/C=C(\C)CC/C=C(\C)CCC=C(C)C)=C(C)C1=O [Coenzyme Q10] | +
CC/C=C\C/C=C\C/C=C\CCCCCCCC(=O)O [Linolenic acid] | ++

Query :: Quickly give me recorded Moisturizing effect for O=C(O)CCCCC1CCSS1 (stereo not drawn) [alpha-lipoic acid]
Result :: −

Query :: Specify reported Moisturizing effect for the compound shown: C[C@@H]1O[C@@H](OC[C@H]2O[C@@H](Oc3c(-c4ccc(O)c(O)c4)oc4cc(O)cc(O)c4c3=O)[C@H](O)[C@@H](O)[C@@H]2O)[C@H](O)[C@H](O)[C@H]1O [Rutin]
Result :: +

Query :: State, in one line, measured Moisturizing effect of O=C1O[C@H]([C@@H](O)CO)C(O)=C1O [Ascorbic acid]
Result :: −

Query :: Hello, please tell me recorded Moisturizing effect for this one: O=c1ccc2ccccc2o1 [Coumarin]
Result :: −

* * *

Experiment: Moisturizing effect: transepidermal water loss (Tewameter TM210)
Format: in vivo, human subjects
Set-up: key: −: No effect; +: Weak effect; ++: Moderate effect; +++: Strong effect; ++++: Very strong effect
Conditions: individual compound of natural origin
quantity_name: Moisturizing effect

Reference set (5 entries):
molecule | experimental_value
O=c1c(O)c(-c2ccc(O)c(O)c2)oc2cc(O)cc(O)c12 | ++
CC(C)=CCC/C(C)=C/CO | −
CC1=C(/C=C/C(C)=C/C=C/C(C)=C/CO)C(C)(C)CCC1 | −
C[C@H]1[C@H](C)CC[C@]2(C(=O)O)CC[C@]3(C)C(=CC[C@@H]4[C@@]5(C)C[C@@H](O)[C@H](O)[C@@](C)(CO)[C@@H]5[C@H](O)C[C@]43C)[C@H]12 | ++
OCc1c[nH]c2ccccc12 | −

Query :: Complete the entry with Moisturizing effect for `C=CCc1ccc(O)c(-c2cc(CC=C)ccc2O)c1`
Result :: −

Query :: Look up and report measured Moisturizing effect for this entry: `O=C(O)/C=C/c1ccc(O)c(O)c1`
Result :: +

Query :: Tell me Moisturizing effect reported for `C=CCc1ccc(O)c(-c2ccc(O)c(CC=C)c2)c1`
Result :: −

Query :: Consider the molecule `C[C@@H]1CC[C@@]2(OC1)O[C@H]1C[C@H]3[C@@H]4CC=C5C[C@@H](O)CC[C@]5(C)[C@H]4CC[C@]3(C)[C@H]1[C@@H]2C` and give its recorded Moisturizing effect.
Result :: +

Query :: Please look at this molecule and report its Moisturizing effect: `CCc1ccc(C)c2ccc(C)c-2c1`
Result :: ++

Query :: Report Moisturizing effect, nothing else, for this molecule: `O=C(/C=C/c1ccc(O)c(O)c1)O[C@H](Cc1ccc(O)c(O)c1)C(=O)O`
Result :: ++

Query :: Specify reported Moisturizing effect for the molecule shown: CC(C)=CCC[C@](C)(O[C@@H]1O[C@H](CO[C@@H]2O[C@H](CO)[C@@H](O)[C@H](O)[C@H]2O)[C@@H](O)[C@H](O)[C@H]1O)[C@H]1CC[C@]2(C)[C@@H]1[C@H](O)C[C@@H]1[C@@]3(C)CC[C@H](O[C@@H]4O[C@H](CO)[C@@H](O)[C@H](O)[C@H]4O[C@@H]4O[C@H](CO)[C@@H](O)[C@H](O)[C@H]4O)C(C)(C)[C@@H]3CC[C@]12C [Ginsenoside Rb1]
Result :: +

Query :: Please list Moisturizing effect recorded for the molecule `O=C(O)c1cc(O)c(O)c(O)c1`
Result :: −

* * *

Test system: NF-kB luciferase activity
Test: Anti-inflammatory effect: inhibition test of NF-kB luciferase activity (TNF-alpha treated fibroblasts)
Assay type: cell-based, Human fibroblasts and mouse fibroblasts, NIH3T3
Design: key: −: No effect; +: Weak effect; ++: Moderate effect; +++: Strong effect; ++++: Very strong effect
Details: individual compound of natural origin
quantity_name: Anti-inflammatory effect

Worked examples, 5 compounds total:
compound | Anti-inflammatory effect
Oc1cc(O)cc(/C=C/c2ccccc2)c1 [Pinosylvin] | +
C[C@H]1[C@H](C)CC[C@]2(C(=O)O)CC[C@]3(C)C(=CC[C@@H]4[C@@]5(C)C[C@@H](O)[C@H](O)[C@@](C)(CO)[C@@H]5[C@H](O)C[C@]43C)[C@H]12 [Madecassic acid] | ++
O=C(/C=C/c1ccc(O)c(O)c1)O[C@H](Cc1ccc(O)c(O)c1)C(=O)O [Rosmarinic acid] | ++
O=c1c(O)c(-c2ccc(O)c(O)c2)oc2cc(O)cc(O)c12 [Quercetin] | ++
Cc1cc(O)c2c(c1)C(=O)c1cc(O)cc(O)c1C2=O [Emodin] | ++

Query :: Using the record for C=CCc1ccc(O)c(-c2ccc(O)c(CC=C)c2)c1 [Honokiol] , state its measured Anti-inflammatory effect.
Result :: +

Query :: Could you please provide reported Anti-inflammatory effect for CCCCCCCC/C=C\CCCCCCCC(=O)O [Oleic acid] ? Thanks!
Result :: +

Query :: Could you please provide reported Anti-inflammatory effect for C=CCc1ccc(O)c(-c2cc(CC=C)ccc2O)c1 [Magnolol] ? Thanks!
Result :: +

Query :: Give the reported value of Anti-inflammatory effect for this record: CC1=C(O)C(=O)C(C)O1 (centres unmarked) [Furaneol]
Result :: +

Query :: Entry Cc1c(C)c2c(c(C)c1O)CC[C@@](C)(CCC[C@H](C)CCC[C@H](C)CCCC(C)C)O2 [alpha-Tocopherol] needs its Anti-inflammatory effect filled in; supply it.
Result :: +

Query :: Identify measured Anti-inflammatory effect corresponding to O=c1cc(-c2ccccc2)oc2cc(O)c(O)c(O)c12 [Baicalein]
Result :: ++

Query :: // fetch Anti-inflammatory effect given entry CC1(C)[C@@H](O[C@H]2O[C@H](C(=O)O)[C@@H](O)[C@H](O)[C@H]2O[C@@H]2O[C@H](C(=O)O)[C@@H](O)[C@H](O)[C@H]2O)CC[C@]2(C)[C@H]3C(=O)C=C4[C@@H]5C[C@@](C)(C(=O)O)CC[C@]5(C)CC[C@@]4(C)[C@]3(C)CC[C@@H]12 [Glycyrrhizin]
Result :: ++

Query :: Report Anti-inflammatory effect for CCc1ccc(C)c2ccc(C)c-2c1 [Chamazulene]
Result :: ++

Query :: Check the records and state Anti-inflammatory effect for C[C@@H]1O[C@@H](OC[C@H]2O[C@@H](Oc3c(-c4ccc(O)c(O)c4)oc4cc(O)cc(O)c4c3=O)[C@H](O)[C@@H](O)[C@@H]2O)[C@H](O)[C@H](O)[C@H]1O [Rutin]
Result :: +

Query :: Assign Anti-inflammatory effect to the following record: CC/C=C\C/C=C\C/C=C\CCCCCCCC(=O)O [Linolenic acid]
Result :: ++

Query :: Please indicate Anti-inflammatory effect recorded for O=C(O)CCCCC1CCSS1 (stereo not drawn) [alpha-lipoic acid]
Result :: +

Query :: Determine from records and report Anti-inflammatory effect for CC(C)=CCC/C(C)=C/CO [Geraniol]
Result :: ++

Query :: Return the recorded Anti-inflammatory effect value; entry: C[C@@H]1CC[C@@]2(OC1)O[C@H]1C[C@H]3[C@@H]4CC=C5C[C@@H](O)CC[C@]5(C)[C@H]4CC[C@]3(C)[C@H]1[C@@H]2C [Diosgenin]
Result :: +

* * *

Assay: Moisturizing effect: transepidermal water loss (Tewameter TM210)
Type: in vivo, human subjects
Parameters: key: −: No effect; +: Weak effect; ++: Moderate effect; +++: Strong effect; ++++: Very strong effect
Details: individual compound of natural origin
quantity_name: Moisturizing effect

compound | experimental_value
O=P(O)(O)O[C@H]1[C@H](OP(=O)(O)O)[C@@H](OP(=O)(O)O)[C@H](OP(=O)(O)O)[C@@H](OP(=O)(O)O)[C@H]1OP(=O)(O)O | −
OCCc1ccc(O)c(O)c1 [Hydroxytyrosol] | +
O=c1cc(-c2ccccc2)oc2cc(O)c(O)c(O)c12 | ++

* * *

System: NF-kB luciferase activity
Assay: Anti-inflammatory effect: inhibition test of NF-kB luciferase activity (TNF-alpha treated fibroblasts)
Type: cell-based, Human fibroblasts and mouse fibroblasts, NIH3T3
Set-up: key: −: No effect; +: Weak effect; ++: Moderate effect; +++: Strong effect; ++++: Very strong effect
Details: individual compound of natural origin
quantity_name: Anti-inflammatory effect

Please review the following examples before continuing.
compound | study_system | experimental_value
OCCc1ccc(O)c(O)c1 [Hydroxytyrosol] | NF-kB luciferase activity | +
O=C(O)c1cc(O)c(O)c(O)c1 [Garlic acid] | NF-kB luciferase activity | +
COC1=C(OC)C(=O)C(C/C=C(\C)CC/C=C(\C)CC/C=C(\C)CC/C=C(\C)CC/C=C(\C)CC/C=C(\C)CC/C=C(\C)CC/C=C(\C)CC/C=C(\C)CCC=C(C)C)=C(C)C1=O [Coenzyme Q10] | NF-kB luciferase activity | −
OCc1c[nH]c2ccccc12 [Indole-3-carbinol] | NF-kB luciferase activity | +
O=P(O)(O)O[C@H]1[C@H](OP(=O)(O)O)[C@@H](OP(=O)(O)O)[C@H](OP(=O)(O)O)[C@@H](OP(=O)(O)O)[C@H]1OP(=O)(O)O [Phytic acid] | NF-kB luciferase activity | +

Query :: Answer with Anti-inflammatory effect of CCCCCCCC/C=C/CCCCCCCC(=O)O [Elaidic acid] measured for NF-kB luciferase activity.
Result :: +

Query :: Specify Anti-inflammatory effect for O=c1ccc2ccccc2o1 [Coumarin] , system NF-kB luciferase activity.
Result :: ++

Query :: Under NF-kB luciferase activity, report Anti-inflammatory effect for CC1=C(/C=C/C(C)=C/C=C/C(C)=C/CO)C(C)(C)CCC1 [Retinol]
Result :: +
